- EXPERIMENTAL_TARGET: T1, Recombinant human LILRB2 protein (ELISA antigen) (human, UniProt Q8N423 22-460)
- T1 construct: also called LILRB2-His; recombinant LILRB2
- T1 sequence (Q8N423 other isoform, or with tags, fused parts or gaps limits assumed): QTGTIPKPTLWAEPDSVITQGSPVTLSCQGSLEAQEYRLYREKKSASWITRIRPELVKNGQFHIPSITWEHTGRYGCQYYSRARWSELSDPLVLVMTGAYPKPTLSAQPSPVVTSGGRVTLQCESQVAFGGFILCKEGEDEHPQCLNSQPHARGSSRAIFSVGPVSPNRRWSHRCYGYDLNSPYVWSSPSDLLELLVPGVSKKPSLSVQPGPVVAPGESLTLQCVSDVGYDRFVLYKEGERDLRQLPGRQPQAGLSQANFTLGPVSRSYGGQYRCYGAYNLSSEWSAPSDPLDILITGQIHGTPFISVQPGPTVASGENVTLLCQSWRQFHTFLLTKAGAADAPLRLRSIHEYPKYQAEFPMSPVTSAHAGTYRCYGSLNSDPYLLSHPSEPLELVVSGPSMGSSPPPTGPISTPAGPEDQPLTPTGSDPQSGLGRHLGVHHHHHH
- ASSAY_DETAILS: ELISA, immobilized LILRB2-His; conditioned media of transient transfections
As shown below, each of these binders has a reported EC50 value.
Give your result in ng/mL as a bare value.

Please review the following examples before continuing.
BINDER	EC50 (ng/mL)
B2H4-51 (antibody, V domains shown, Humanized variant, human IgG4 / kappa) VH: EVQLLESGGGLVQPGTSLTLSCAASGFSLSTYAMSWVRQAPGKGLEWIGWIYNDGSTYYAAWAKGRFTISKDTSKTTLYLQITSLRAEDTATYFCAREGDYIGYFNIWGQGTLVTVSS VL: DIQMTQSPSSLSASVGDRVTITCQASQSIGSNLAWYQLKPGQRPKLLIYAAATLASGVPSRFKGSGSGTDFTLTISSLQSEDAATYYCQSYVSGSSDVAFGGGTEVVVK	3.85
B2H4-43 (antibody, V domains shown, Humanized variant, human IgG4 / kappa) VH: EVQLLESGGRLVQPGTSLRLSCAVSGFSLSTYAMSWVRQAPGKGLEWIGWIYNDGSTYYAAWAKGRFTISKDTSKTTLYLQMNSLTVEDTATYFCAREGDYIGYFNIWGQGTLVTVSS VL: DIEMTQSPSSVSASVGDRVTLTCQASQSIGSNLAWYQQKPGQAPKLLIYAAATLASGVPSRFKGSGSGTDFTLTISSLQPEDFATYYCQSYVSGSSDVAFGGGTEVVVK	4.96
B2H4-24 (antibody, V domains shown, Humanized variant, human IgG4 / kappa) VH: EVQLVESGGDLATPGGSLRLSCAVSGFSLSTYAMSWVRQAPGKGLEWVGWIYNDGSTYYAAWAKGRFTISKDTSKTTVYLQMTSLRAEDTALYFCAREGDYIGYFNIWGQGTLVTVSS VL: DIQMTQSPSSVSASVGDRVTITCQASQSIGSNLAWYQQKPGKAPKLLIYAAATLASGVPLRFSGSGSGTDFTLTISNLQPEDSATYYCQSYVSGSSDVAFGGGTKVEIK	3.23

Task: Item B2H4-45 (antibody, V domains shown, Humanized variant, human IgG4 / kappa) VH: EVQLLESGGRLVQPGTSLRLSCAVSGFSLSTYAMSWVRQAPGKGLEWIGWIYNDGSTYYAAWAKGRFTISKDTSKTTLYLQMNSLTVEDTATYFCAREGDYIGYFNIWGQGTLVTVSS VL: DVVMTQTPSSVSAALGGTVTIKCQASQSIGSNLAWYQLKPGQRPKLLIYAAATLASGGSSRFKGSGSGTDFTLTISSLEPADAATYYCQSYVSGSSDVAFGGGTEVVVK has what recorded EC50?
Result: 3.61

Task: Item B2H4-54 (antibody, V domains shown, Humanized variant, human IgG4 / kappa) VH: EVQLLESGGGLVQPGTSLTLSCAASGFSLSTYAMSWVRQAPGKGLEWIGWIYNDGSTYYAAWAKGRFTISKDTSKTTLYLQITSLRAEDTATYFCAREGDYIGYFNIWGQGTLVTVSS VL: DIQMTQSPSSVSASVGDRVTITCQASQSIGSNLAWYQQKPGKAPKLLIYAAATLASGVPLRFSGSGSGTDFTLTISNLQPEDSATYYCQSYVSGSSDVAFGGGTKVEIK has what recorded EC50?
Result: 2.25

Data origin: patent US20240132589A1
